# Test System: MAGI2_5, Q86UL8
# Sequence (Q86UL8 915-1017): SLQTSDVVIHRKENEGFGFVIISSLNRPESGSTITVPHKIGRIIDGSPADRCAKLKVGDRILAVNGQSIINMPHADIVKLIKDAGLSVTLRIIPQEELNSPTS
# Test Details: holdup assay
# Parameters: key: below the threshold = too weak to quantify, mostly under pKd 3.1 to 4
# Experimental Context: plain residues with an end cap or a label only (N-terminal biotin on a linker: ttds)
Measure: pKd
Answer as a number with no unit attached.

Study these solved cases before continuing.
ERKLSSESQV [LRP4, O75096] :: 4.08
RSLEEEESQL [GRASP, Q7Z6J2] :: 4.42
IDNDTESTAL [ARHGAP17, Q68EM7] :: 4.47
VLRLQSETSV [VANGL1, Q8TAA9] :: 4

Item: SVWLRKETRV [CYSLTR2, Q9NS75] | pKd: 3.93

Item: STLTIFETAL [ABCC4, O15439] | pKd: 4.69

Item: SSRTRRETQL [HPV16-E6, P03126] | pKd: 3.93

Item: SRPQRTQTQV [HPV67-E6, A4U7F2] | pKd: 3.94

Where do the numbers come from? From paper PMC9482650.
